METHOD SUMMARY: in vitro
CONDITIONS USED: African green monkey
Structures can show the parent of a compound that is named as a salt.
Okay, here is how we bin by cytotoxicity: zone 1 (below 9%), zone 2 (9% to below 30%), zone 3 (30% or more)

| MOLECULE | CLASS ASSIGNMENT |
| --- | --- |
| Oc1c(Cl)cc(Cl)c2cccnc12 | zone 3 |
| CN1CCCN(C(c2ccccc2)c2ccc(Cl)cc2)CC1 (stereo not shown) | zone 3 |
| CN1CCC(=C2c3ccccc3C=Cc3ccccc32)CC1 [Cyproheptadine hydrochloride] | zone 2 |
| CCCNCC(O)COc1ccccc1C(=O)CCc1ccccc1 (stereo not shown) [Propafenone hydrochloride] | zone 1 |
| COc1cc2nc(N3CCN(C(=O)C4COc5ccccc5O4)CC3)nc(N)c2cc1OC (stereo not shown) [Doxazosin mesylate] | zone 1 |
| CN(C)CCCN1c2ccccc2Sc2ccc(Cl)cc21 | zone 3 |
| CCOC(=O)C1=C(COCCN)NC(C)=C(C(=O)OC)C1c1ccccc1Cl (stereo not shown) | zone 1 |
| CCOC(=O)c1c(CSc2ccccc2)n(C)c2cc(Br)c(O)c(CN(C)C)c12 | zone 2 |
| CN(C)CCCN1c2ccccc2Sc2ccccc21 [Promazine hydrochloride] | zone 2 |
| COc1ccc2cc1Oc1ccc(cc1)C[C@H]1c3c(cc4c(c3Oc3cc5c(cc3OC)CCN(C)[C@@H]5C2)OCO4)CCN1C | zone 3 |
| C=C1C(=O)[C@]23[C@H](O)[C@H]1CC[C@H]2[C@@]12CO[C@]3(O)[C@@H](O)[C@@H]1C(C)(C)CC[C@@H]2O | zone 2 |

----------
System: SARS-CoV-2 (USA_WA1/2020)
METHOD SUMMARY: microbe, parasite or virus in culture
Format: cell-based
CONDITIONS USED: Severe acute respiratory syndrome coronavirus 2, Vero C1008; SARS-CoV-2 CPE assay, Vero E6 cells; efficacy; read-out: CPE % Efficacy
Counter-ions that a name gives are not always drawn.
Below is a list of entries, each paired with its recorded Emax value.

| MOLECULE | Emax |
| --- | --- |
| Cc1c(O)cccc1C(=O)N[C@@H](CSc1ccccc1)[C@H](O)CN1C[C@H]2CCCC[C@H]2C[C@H]1C(=O)NC(C)(C)C [Nelfinavir Mesylate] | 106% |
| CN1CCN(CCCN2c3ccccc3Sc3ccc(S(=O)(=O)N(C)C)cc32)CC1 [Thioproperazine dimethanesulfonate] | 54% |
| CNCCCN1c2ccccc2CCc2ccccc21 [Desipramine hydrochloride] | 43.7% |
| NC(=O)c1cnc(N[C@@H]2CCCC[C@@H]2N)nc1Nc1cccc(-n2nccn2)c1 | 66.4% |

----------
System: Vero E6 cells
CONDITIONS USED: read-out: Cytotox CC50; cytotoxicity counter-assay, Vero E6 cells without virus
Below is a list of entries, each paired with its recorded CC50 value.

| COMPOUND | CC50 |
| --- | --- |
| CCCCNc1ncc2c(-c3ccc(F)cc3)nn(CC3CCC(N)CC3)c2n1 (stereo not shown) [UNC-569] | 4.92 µM |
| COc1cc2nc(-c3ccc(N4CCN(C)CC4)cc3)nc(NCCN3CCOCC3)c2cc1OC [CPG-52364] | 10 µM |
| COc1cccc([C@@H](C)NCCCc2ccccc2Cl)c1 [NPS-R568] | 12.6 µM |
| Cc1c(NC(=O)OC[C@@H]2COCCN2)cn2ncnc(Nc3ccc4c(cnn4Cc4cccc(F)c4)c3)c12 [AC480 (BMS-599626)] | 12.6 µM |
| C/C=C(\C)C(=O)OC1C(C)C2(O)C3C=C(C)C(=O)C3CC(CO)=CC2C2C(C)(C)C12OC(C)=O (stereo not shown) [NCGC00380717] | 0.35 µM |
| CO/C1=C\C(C)=C\[C@@H](C)[C@@H](O)[C@@H](C)C/C(C)=C/C=C/[C@H](OC)[C@@H]([C@@H](C)[C@@H](O)[C@H](C)[C@@]2(O)C[C@@H](O)[C@H](C)[C@@H](C(C)C)O2)OC1=O [Bafilomycin A1 from Streptomyces griseus] | 0.1 µM |
| C(=N\Nc1nc(Nc2ccccc2)nc(N2CCOCC2)n1)/c1c[nH]c2ccccc12 [MLS000543798] | 0.45 µM |
| O=c1[nH]c2ccccc2n1C1CCN(Cc2ccc(-c3nc4cc5nc[nH]c5cc4nc3-c3ccccc3)cc2)CC1 [Akt-I-1,2] | 12.6 µM |
| CN(C)CC(=O)N1CCC(c2ccc(NC(=O)c3nc(C#N)c[nH]3)c(C3=CCCCC3)c2)CC1 [JNJ-28312141] | 12.6 µM |
| C[C@H]1CC[C@@]2(OC1)O[C@H]1CC3[C@@H]4CC[C@@H]5C[C@@H](O[C@@H]6O[C@H](CO)[C@@H](O[C@@H]7O[C@H](CO[C@@H]8OC[C@@H](O)[C@H](O)[C@H]8O)[C@@H](O[C@@H]8O[C@H](CO)[C@H](O)[C@H](O)[C@H]8O)[C@H](O)[C@H]7O)[C@H](O)[C@H]6O)CC[C@]5(C)C4CC[C@]3(C)[C@H]1[C@@H]2C (stereo partly shown) [NCGC00385658] | 3.4 µM |
| O=C(NCCCCN1CCN(c2cccc(Cl)c2Cl)CC1)c1cc2ccccc2s1 [FAUC-365] | 12.6 µM |
| CCCCOC(=O)c1ccnc2cc(C(OCCN3CCCCC3)c3ccccc3C)sc12 (stereo not shown) [NCGC00481621] | 12.6 µM |
| O=S(=O)(NCC1CC1)c1ccc(Nc2nccc(N3CCCc4cc(O)ccc43)n2)cc1 [Pyrintegrin] | 3.98 µM |
